Recorded measurements of cell viability, one per entry
- Tested on: MARIMO;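 note: after 48 h exposure read by CellTiter-Glo luminescence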
- measurement-notes: cell viability relative to vehicle control; higher = less cytotoxic
- run-conditions: 10 µM; SRSF2 genotype: SRSF2 wt/wt
Counter-ions that a name gives are not always drawn.

molecule	target	unit	cell viability
Cc1oc2nc3c(c(NC(=O)CN4CCCC4=O)c2c1C)CCCC3	MARIMO	%	104
O=C(O)c1ccc(O)c2ncccc12	MARIMO	%	108
O=S(=O)(O)CCSSCCS(=O)(=O)O	MARIMO	%	103
O=C(NC1CCOCC1)c1ccc(-c2cc(-c3c[nH]nc3-c3ccccn3)ccn2)cc1	MARIMO	%	110
CC(C)C(=O)OCC(=O)[C@@]12O[C@H](C3CCCCC3)O[C@@H]1C[C@H]1[C@@H]3CCC4=CC(=O)C=C[C@]4(C)[C@H]3[C@@H](O)C[C@@]12C [Ciclesonide]	MARIMO	%	68.9
NCCOCCOCCNC(=O)Cc1ccc(Nc2nc(NCc3ccc(F)cc3)nc(NCC3CCCCC3)n2)cc1 [AP-III-a4 (ENOblock)]	MARIMO	%	97.1
CC(C)n1nc(-c2ccc(NC(=O)Nc3cc(C(F)(F)F)ccc3F)cc2)c2c(N)ncnc21	MARIMO	%	4.51
O=C(O)CSc1cc(NS(=O)(=O)c2ccc(Br)cc2)c2ccccc2c1O	MARIMO	%	94.5
CC(C)NCC(O)c1ccc(NS(C)(=O)=O)cc1 (centres undefined) [Sotalol HCl]	MARIMO	%	109
CCN(CC)CCNC(=O)c1c(C)[nH]c(/C=C2\C(=O)Nc3ccc(F)cc32)c1C [Sunitinib Malate]	MARIMO	%	19.4
CC1=C[C@H](O)CC(C)(C)[C@H]1/C=C/C(C)=C/C=C/C(C)=C/C=C/C=C(C)/C=C/C=C(C)/C=C/C1=C(C)C[C@@H](O)CC1(C)C	MARIMO	%	100
CC1=C(CC(=O)O)c2cc(F)ccc2/C1=C\c1ccc([S+](C)[O-])cc1 (centres undefined)	MARIMO	%	112
OC[C@H]1O[C@H](O[C@H]2O[C@H](CO)[C@@H](O)[C@H](O)[C@H]2O)[C@H](O)[C@@H](O)[C@@H]1O [D-(+)-Trehalose dihydrate]	MARIMO	%	111
N[C@@H](Cc1cc(I)c(Oc2cc(I)c(O)c(I)c2)c(I)c1)C(=O)O [L-Thyroxine]	MARIMO	%	114
